Data origin, for the record: PubChem BioAssay (EPA / NIEHS)

Test Target: Cellular tumor antigen p53 (Homo sapiens) (UniProt P04637)
Sequence (P04637 whole entry, looked up): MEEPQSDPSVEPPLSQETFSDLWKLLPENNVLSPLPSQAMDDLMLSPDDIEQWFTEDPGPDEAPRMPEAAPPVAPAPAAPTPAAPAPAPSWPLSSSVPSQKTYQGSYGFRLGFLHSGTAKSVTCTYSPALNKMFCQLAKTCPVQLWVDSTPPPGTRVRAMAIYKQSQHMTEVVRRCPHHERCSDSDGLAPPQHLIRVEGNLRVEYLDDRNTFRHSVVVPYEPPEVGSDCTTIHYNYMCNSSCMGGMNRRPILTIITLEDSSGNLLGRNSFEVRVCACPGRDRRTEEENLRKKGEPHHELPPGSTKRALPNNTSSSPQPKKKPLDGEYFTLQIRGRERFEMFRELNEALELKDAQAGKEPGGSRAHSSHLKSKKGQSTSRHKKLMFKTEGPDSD
Test Summary: ATG_p53_CIS: Attagene CIS-FACTORIAL HepG2 Assay for human p53 Transcription Factor (AID 2282994)
Condition Info: HepG2 p53 cis-element reporter, Attagene mRNA; actives raise or lower the signal
Calls of active or inactive are those of the source. The calls were made as follows: active = hit-call score of the fitted dose curve at least 0.9, where 1 is the maximum; inactive = score below 0.9.
Hello, when you answer, please use one of the following outcomes: true (1) (active), false (0) (inactive)

Query block: What is the recorded call for this compound in the test? "CC(c1ccc(O)cc1)(c1ccc(O)cc1)c1ccc(O)cc1"
Result block: true (1)

Query block: What is the recorded call for this compound in the test? "CCCCCCCCOC(=O)c1ccccc1C(=O)OCCCCCCCC"
Result block: false (0)

Query block: What is the recorded call for this compound in the test? "c1ccc(-c2ccccc2)cc1"
Result block: true (1)

Query block: What is the recorded call for this compound in the test? "C=CC(N)=O"
Result block: false (0)

Query block: What is the recorded call for this compound in the test? "Cc1ccc(O)c(C)c1"
Result block: false (0)

Query block: What is the recorded call for this compound in the test? "CC1=C2C[C@H]3[C@@H](CC=C4C[C@@H](O)CC[C@@]43C)[C@@H]2CC[C@]12O[C@@H]1C[C@H](C)CN[C@H]1[C@H]2C"
Result block: false (0)

----------
Read-out: Cytochrome P450 (CYP1A2), CYP1A2 (gene 1544)
Test Summary: LTEA_HepaRG_CYP1A2: Life Technologies and Expression Analysis (LTEA) Assay for Cytochrome P450 (CYP1A2) using HepaRG (AID 2283479)
Condition Info: mRNA level, 48 h; actives raise or lower the signal
The source made the active and inactive calls. The calls were made as follows: active = hit-call score of the fitted dose curve at least 0.9, where 1 is the maximum; inactive = score below 0.9.
Hello, when you answer, please use one of the following outcomes: active, inactive

Query block: What is the recorded call for this compound in the test? "Cc1cc2c3c(c1)C(c1ccccc1)=N[C@@H](NC(=O)c1ccncc1)C(=O)N3CC2"
Result block: active

Query block: What is the recorded call for this compound in the test? "CCCCCCOC(=O)c1ccccc1C(=O)OCCCCCC"
Result block: active

Query block: What is the recorded call for this compound in the test? "CCC(=O)O[C@H]1CC[C@H]2[C@@H]3CCC4=CC(=O)CC[C@]4(C)[C@H]3CC[C@]12C"
Result block: inactive

Query block: What is the recorded call for this compound in the test? "O=C(O)C(F)(F)C(F)(F)C(F)(F)C(F)(F)C(F)(F)C(F)(F)C(F)(F)C(F)(F)F"
Result block: active

----------
Test Summary: ATG_GATA_CIS: Attagene CIS-FACTORIAL HepG2 Assay for human GATA Binding Protein (AID 2282944)
Condition Info: HepG2 GATA cis-element reporter, Attagene multiplex mRNA; actives raise or lower the signal
Method: ATG_CIS is a cell-based, multiplexed-readout assay that uses HepG2, a human liver cell line, with measurements taken at 24 hours after chemical dosing in a 24-well plate.ATG_GATA_CIS is one of 52 assay component(s) measured or calculated from the ATG_CIS assay. […] This assay endpoint, ATG_GATA_CIS, was analyzed with bidirectional fitting relative to DMSO as the negative control and baseline of activity. […]
Calls of active or inactive are those of the source. Rule for the calls: active = hit-call score of the fitted dose curve at least 0.9, where 1 is the maximum; inactive = score below 0.9.
Hello, when you answer, please use one of the following outcomes: active, inactive

Query block: What is the recorded call for this molecule in the test? "Cc1cc(-c2ccc(N)c(C)c2)ccc1N"
Result block: inactive

Query block: What is the recorded call for this molecule in the test? "O=C(O)C(F)(F)C(F)(F)C(F)(F)C(F)(F)C(F)(F)F"
Result block: inactive

Query block: What is the recorded call for this molecule in the test? "O=S(=O)(O)C(F)(F)C(F)(F)C(F)(F)C(F)(F)C(F)(F)C(F)(F)F"
Result block: inactive

Query block: What is the recorded call for this molecule in the test? "CCCCCCCCCC[N+](C)(C)CCCCCCCCCC"
Result block: active

Query block: What is the recorded call for this molecule in the test? "Oc1c(Cl)c(Cl)c(Cl)c(Cl)c1Cl"
Result block: inactive

Query block: What is the recorded call for this molecule in the test? "O=C(O)C(F)(F)C(F)(F)C(F)(F)C(F)(F)C(F)(F)C(F)(F)C(F)(F)C(F)(F)C(F)(F)F"
Result block: inactive

Query block: What is the recorded call for this molecule in the test? "Cc1cccc(C)c1N"
Result block: inactive

Query block: What is the recorded call for this molecule in the test? "COS(=O)(=O)OC"
Result block: inactive

Query block: What is the recorded call for this molecule in the test? "CCNc1nc(NC(C)C)nc(SC)n1"
Result block: inactive

Query block: What is the recorded call for this molecule in the test? "O=C(NC(=O)c1c(F)cccc1F)Nc1cc(Cl)c(OC(F)(F)C(F)F)c(Cl)c1"
Result block: inactive

Query block: What is the recorded call for this molecule in the test? "CCOCCOC(C)=O"
Result block: inactive

Query block: What is the recorded call for this molecule in the test? "CC(C)(O)C(=O)Nc1ccc([N+](=O)[O-])c(C(F)(F)F)c1"
Result block: inactive

Query block: What is the recorded call for this molecule in the test? "C[C@]12CCC(=O)C=C1CC[C@@H]1[C@@H]2CC[C@]2(C)C(=O)CC[C@@H]12"
Result block: inactive

Query block: What is the recorded call for this molecule in the test? "CCCCCCOC(=O)c1ccccc1C(=O)OCCCCCC"
Result block: inactive

Query block: What is the recorded call for this molecule in the test? "Cc1cc2c3c(c1)C(c1ccccc1)=N[C@@H](NC(=O)c1ccncc1)C(=O)N3CC2"
Result block: inactive

Query block: What is the recorded call for this molecule in the test? "Nn1cnnc1"
Result block: inactive

Query block: What is the recorded call for this molecule in the test? "NS(=O)(=O)C(F)(F)C(F)(F)C(F)(F)C(F)(F)C(F)(F)C(F)(F)C(F)(F)C(F)(F)F"
Result block: inactive

Query block: What is the recorded call for this molecule in the test? CC(C)C(=O)OCC(C)(C)C(OC(=O)C(C)C)C(C)C (stereo not drawn)
Result block: inactive
